test_target: pooled human IgG
measured_property: Enzyme Activity Endpoint Assay (purified): scIgG (ng/µL)
Numeric only. Scale: ng/µL

// recorded Enzyme Activity Endpoint Assay (purified): scIgG for PRT-129 (protein) MRNATEAYAKEVPHQITSVWTKGVTPLTPEQFRYNNEDVFHAPYLANQGWYDITKAFDGKDNLLCGAATAGNMLHWWFDQNKTEIEAYLSKHPEKQKIIFNNQELFDLKAAIDTKDSQTNSQLFNYFRDKAFPNLSARQLGVMPDLVLDMFINGYYLNVFKTQSTDVNRPYQDKDKRGGIFDAVFTRGDQTKLLTARHDLKNKGLNDISTLIKQELTEGRALALSHTYANVSISHVINLWGADFNAEGNLEAIYVTDSDANASIGMKKYFVGINAHGHVAISAKKIEGENIGAQVLGLFTLSSGKDIWQKLS : 0
